src = paper PMC8691714

# assay: In vivo pharmacokinetic study in mice, oral ibrutinib (plasma, LC-MS/MS)
# appliedConditions: female, C57BL/6, mouse, plasma, po, 10 mg/kg, Ibrutinib Cmax, female OATP2B1(-/-) mice; ibrutinib 10 mg/kg PO; no co-treatment; mean (SD)
measurementLabel: Cmax (µg/mL)
// return numeric value only (unit: µg/mL, not printed)

Form field: reported Cmax of C=CC(=O)N1CCC[C@@H](n2nc(-c3ccc(Oc4ccccc4)cc3)c3c(N)ncnc32)C1
1.25

* * *

# assay: In vivo pharmacokinetic study in mice, intravenous ibrutinib (plasma)
# appliedConditions: female, FVB, mouse, plasma, iv, 1 mg/kg, Ibrutinib AUC(0-last), female wild-type FVB mice; ibrutinib 1 mg/kg IV; co-treatment cobicistat; mean (SD)
measurementLabel: AUC(0-t) (ng·h/mL)
// return numeric value only (unit: ng·h/mL, not printed)

Form field: reported AUC(0-t) of C=CC(=O)N1CCC[C@@H](n2nc(-c3ccc(Oc4ccccc4)cc3)c3c(N)ncnc32)C1
1010

* * *

# assay: In vivo pharmacokinetic study in mice, intravenous ibrutinib (plasma)
# appliedConditions: female, FVB, mouse, plasma, iv, 1 mg/kg, Ibrutinib Cmax, female wild-type FVB mice; ibrutinib 1 mg/kg IV; co-treatment corn oil; mean (SD)
measurementLabel: Cmax (ng/mL)
// return numeric value only (unit: ng/mL, not printed)

Form field: reported Cmax of C=CC(=O)N1CCC[C@@H](n2nc(-c3ccc(Oc4ccccc4)cc3)c3c(N)ncnc32)C1 [Ibrutinib]
1410

* * *

# assay: In vivo pharmacokinetic study in mice, oral ibrutinib (plasma, LC-MS/MS)
# appliedConditions: female, C57BL/6, mouse, plasma, po, 10 mg/kg, Ibrutinib Cmax, female wild-type C57BL/6 mice; ibrutinib 10 mg/kg PO; no co-treatment; mean (SD)
measurementLabel: Cmax (ng/mL)
// return numeric value only (unit: ng/mL, not printed)

Form field: reported Cmax of C=CC(=O)N1CCC[C@@H](n2nc(-c3ccc(Oc4ccccc4)cc3)c3c(N)ncnc32)C1 [Ibrutinib]
1420

* * *

# assay: In vivo pharmacokinetic study in mice, oral ibrutinib (plasma, LC-MS/MS)
# appliedConditions: male, C57BL/6, mouse, plasma, po, 10 mg/kg, Ibrutinib AUC(0-last), male wild-type C57BL/6 mice; ibrutinib 10 mg/kg PO; no co-treatment; mean (SD)
# Experimental: Experiments were performed with male and female mice from inbred wild-type strains (FVB, C57BL/6, DBA) or with age- and sex-matched genetically engineered mice with a deficiency of the Cyp3a locus [(8 genes; FVB.129P2-Cyp3a13^tm1Ahs Del (5Cyp3a57-Cyp3a59)1Ahs); ref. [16]; CYP3A^−/−], a deficiency of the intestinal transporter OATP2B1 (ref. [17]; OATP2B1 ^−/−), or the hepatic transporter OATP1B2 (ref. [18]; OATP1B2 ^−/−). […] The lower limit of quantification was 5 ng/mL, using 5-μL sample volumes. […]
measurementLabel: AUC(0-t)
Form entry: enter the amount, then its unit.

Form field: reported AUC(0-t) of C=CC(=O)N1CCC[C@@H](n2nc(-c3ccc(Oc4ccccc4)cc3)c3c(N)ncnc32)C1 [Ibrutinib]
1390 ng·h/mL

* * *

# assay: In vivo pharmacokinetic study in mice, intravenous ibrutinib (plasma)
# appliedConditions: female, FVB, mouse, plasma, iv, 1 mg/kg, Ibrutinib Cmax, female CYP3A(-/-) mice; ibrutinib 1 mg/kg IV; co-treatment cobicistat; mean (SD)
measurementLabel: Cmax (ng/mL)
// return numeric value only (unit: ng/mL, not printed)

Form field: reported Cmax of C=CC(=O)N1CCC[C@@H](n2nc(-c3ccc(Oc4ccccc4)cc3)c3c(N)ncnc32)C1 [Ibrutinib]
1440
